Test system: FGFR1 (UniProt P11362)
Sequence (P11362 whole entry, looked up): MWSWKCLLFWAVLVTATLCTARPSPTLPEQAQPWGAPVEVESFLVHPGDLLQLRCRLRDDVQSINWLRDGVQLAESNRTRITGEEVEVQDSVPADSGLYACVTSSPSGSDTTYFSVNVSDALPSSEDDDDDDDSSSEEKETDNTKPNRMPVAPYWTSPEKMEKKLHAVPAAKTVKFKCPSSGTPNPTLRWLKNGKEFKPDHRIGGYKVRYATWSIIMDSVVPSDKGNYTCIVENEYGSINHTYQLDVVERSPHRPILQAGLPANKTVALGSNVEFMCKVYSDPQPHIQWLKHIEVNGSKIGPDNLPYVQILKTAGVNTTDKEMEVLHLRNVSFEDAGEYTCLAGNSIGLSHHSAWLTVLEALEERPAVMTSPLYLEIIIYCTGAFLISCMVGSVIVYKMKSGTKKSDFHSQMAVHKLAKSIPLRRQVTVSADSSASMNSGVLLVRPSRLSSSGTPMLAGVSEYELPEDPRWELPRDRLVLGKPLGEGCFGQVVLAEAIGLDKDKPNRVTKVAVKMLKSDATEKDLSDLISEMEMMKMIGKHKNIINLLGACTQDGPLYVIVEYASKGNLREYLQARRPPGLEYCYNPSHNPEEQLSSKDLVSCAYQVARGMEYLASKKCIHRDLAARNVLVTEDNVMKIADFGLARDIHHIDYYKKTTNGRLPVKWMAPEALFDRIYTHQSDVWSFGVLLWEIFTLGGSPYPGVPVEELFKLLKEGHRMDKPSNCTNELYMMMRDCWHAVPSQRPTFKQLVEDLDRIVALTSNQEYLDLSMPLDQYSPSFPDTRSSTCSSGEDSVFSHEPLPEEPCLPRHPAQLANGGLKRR
Test protocol: phosphorylation enrichment, bacterial display (enrichment ratio); higher = better substrate or ligand; peptides without Tyr show the background
Let's look at some sequences and their measured phosphorylation enrichment.
Please give only the number in your answer, with no unit.

>>> quantitative_readout("TFRPPYYHRNC [HGD_Y333]")
0.497
>>> quantitative_readout("TLGPFYPSRLF [CRYAA_Y18]")
0.581
>>> quantitative_readout("RKPDIYGRLAS [MCM4_Y459_E460G]")
0.757
>>> quantitative_readout("SLIDMYSEVPD [OPA1_Y268_L272P]")
0.892
>>> quantitative_readout("EAVSIYQFYGQ [CBLC_Y402_H405Y]")
1.6

[in] For the sequence PVKSEYSSIKL [NPC2_Y119_P120S] , what phosphorylation enrichment is on record?
[out] 0.518

[in] Request: IPQEEYTATGL
[out] 0.506

[in] Field entry: FADIAYNYRQG [PAH_Y166_H170Q]
[out] 0.412

[in] Same thing, different sequence: CGTPEYRAPEI [PRKACA_Y205_L206R]
[out] 0.603

====

Test system: Jak2 (UniProt O60674)
Sequence (O60674 whole entry, looked up): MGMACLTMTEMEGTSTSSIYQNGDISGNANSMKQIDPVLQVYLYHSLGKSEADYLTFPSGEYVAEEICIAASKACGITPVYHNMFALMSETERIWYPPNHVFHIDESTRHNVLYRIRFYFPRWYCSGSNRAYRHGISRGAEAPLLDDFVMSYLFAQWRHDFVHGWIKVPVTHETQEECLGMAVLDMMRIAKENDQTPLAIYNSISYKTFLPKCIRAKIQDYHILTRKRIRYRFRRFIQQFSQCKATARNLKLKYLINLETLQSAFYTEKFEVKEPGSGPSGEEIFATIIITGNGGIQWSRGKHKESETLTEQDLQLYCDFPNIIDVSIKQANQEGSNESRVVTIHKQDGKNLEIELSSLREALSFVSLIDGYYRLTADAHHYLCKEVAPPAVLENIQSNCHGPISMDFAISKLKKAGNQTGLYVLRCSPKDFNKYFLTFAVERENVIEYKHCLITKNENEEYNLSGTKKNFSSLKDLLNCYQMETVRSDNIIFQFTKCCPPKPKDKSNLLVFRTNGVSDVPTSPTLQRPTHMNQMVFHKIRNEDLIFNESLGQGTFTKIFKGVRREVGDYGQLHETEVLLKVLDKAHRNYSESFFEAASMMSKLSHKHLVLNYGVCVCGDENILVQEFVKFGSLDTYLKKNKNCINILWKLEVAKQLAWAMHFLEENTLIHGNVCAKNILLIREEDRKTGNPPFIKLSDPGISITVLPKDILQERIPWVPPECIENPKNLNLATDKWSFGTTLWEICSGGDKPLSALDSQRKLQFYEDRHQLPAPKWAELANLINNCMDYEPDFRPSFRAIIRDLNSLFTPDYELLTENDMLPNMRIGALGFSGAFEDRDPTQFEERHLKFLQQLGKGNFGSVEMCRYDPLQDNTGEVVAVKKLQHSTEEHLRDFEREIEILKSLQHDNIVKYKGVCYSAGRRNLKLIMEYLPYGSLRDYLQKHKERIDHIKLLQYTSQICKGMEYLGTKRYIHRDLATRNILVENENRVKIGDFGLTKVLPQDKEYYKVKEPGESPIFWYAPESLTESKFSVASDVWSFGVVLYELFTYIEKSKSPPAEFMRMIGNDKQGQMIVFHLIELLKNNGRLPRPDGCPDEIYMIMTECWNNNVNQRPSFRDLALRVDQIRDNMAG
Test protocol: phosphorylation enrichment, bacterial display (enrichment ratio); higher = better substrate or ligand; peptides without Tyr show the background
Returns one of fulfilled or not fulfilled; fulfilled when phosphorylation enrichment is >= 1.

[in] # bool: phosphorylation enrichment of YPKAHYHWLVL [APTX_Y214_R213H] >= 1
[out] fulfilled

[in] Here is the next sequence: NAPNSYGRRPS [CDKN2A_Y44_I49S]
[out] not fulfilled

[in] Now try KKKKQYKGKYL [CASK_Y708_D710G] .
[out] not fulfilled

[in] Next up: TDTAAYEERVR [SPTB_Y474]
[out] fulfilled

====

Test system: Hck (UniProt P08631)
Sequence (P08631 whole entry, looked up): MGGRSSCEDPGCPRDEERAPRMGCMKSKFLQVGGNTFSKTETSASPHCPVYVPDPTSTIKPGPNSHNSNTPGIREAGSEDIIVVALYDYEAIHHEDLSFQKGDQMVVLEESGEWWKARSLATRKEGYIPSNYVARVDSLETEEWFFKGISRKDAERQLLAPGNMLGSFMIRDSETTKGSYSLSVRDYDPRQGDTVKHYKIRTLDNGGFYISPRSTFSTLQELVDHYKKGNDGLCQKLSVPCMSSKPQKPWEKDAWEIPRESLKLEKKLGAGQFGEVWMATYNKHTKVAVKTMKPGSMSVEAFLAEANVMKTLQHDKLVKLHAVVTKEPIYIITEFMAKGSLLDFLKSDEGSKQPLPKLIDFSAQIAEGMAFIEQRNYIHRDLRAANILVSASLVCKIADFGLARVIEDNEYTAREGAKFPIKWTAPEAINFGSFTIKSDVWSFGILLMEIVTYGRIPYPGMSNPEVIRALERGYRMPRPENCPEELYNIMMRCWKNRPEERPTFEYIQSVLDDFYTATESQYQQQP
Test protocol: phosphorylation enrichment, bacterial display (enrichment ratio); higher = better substrate or ligand; peptides without Tyr show the background
Quantity: phosphorylation enrichment
Form: value (number only, do not type unit).

The following sequences have reported results that may help.
>>> quantitative_readout("ADFFDYGHGLS [KHDRBS3_Y304_YF]")
0.522
>>> quantitative_readout("IIAVHYVLEES [RYR2_Y4559]")
0.516
>>> quantitative_readout("DAMQTYNGNDE [TSPAN7_Y131]")
0.494
>>> quantitative_readout("ALDRPYTSKHS [NANS_Y71_E68D]")
0.489

[in] Which phosphorylation enrichment value is on record for PNRILYRDFRQ [MYH7_Y715_G716R] ?
[out] 0.452

[in] Would you mind doing YYSSEYHCVGG [CTSC_Y345_Y347C] as well?
[out] 2.58

[in] Follow-up entry: LNPFIYSLRNW [OR1A2_Y288]
[out] 6.49

[in] How about CTAIHYNFMCN [TP53_Y234_T231A_YF] ?
[out] 0.597

[in] Let us now turn to RSSGGYEPRGR [FUS_Y239]
[out] 0.379

====

Test system: SHP2-C SH2;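 note: peptide library displayed on the E. coli surface as eCPX fusions, selected cells deep-sequenced, score is each peptide's frequency after selection divided by its frequency in the input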
Test protocol: SH2 binding enrichment of the phosphorylated peptide, bacterial display (enrichment ratio); higher = better substrate or ligand; peptides without Tyr show the background
# SH2 binding enrichment per entry
Kindly provide the number alone.

Here's what some known entries look like.
>>> quantitative_readout("HNVPIYEGYGL [ACTA1_Y168_A172G]")
0.886
>>> quantitative_readout("TSNQEYLDVSM [FGFR1_Y766_L769V]")
0.696
>>> quantitative_readout("HSVLQYVGGVM [FGGY_Y136]")
0.511
>>> quantitative_readout("PKGTGCIKTEL [STAT1_Y701_Y701C]")
0.73
>>> quantitative_readout("NRLTDYFEPLL [BBS10_Y536_YF]")
0.842

[in] Which SH2 binding enrichment value is on record for CSRRFYQLTKL [AR_Y858] ?
[out] 0.488

[in] Now give it for HSGVSYYINLC [IGF2R_Y2024_N2020S] too.
[out] 0.566

[in] Another: RRNVFYFSFLL [PTEN_Y177_Y174N_YF]
[out] 0.691

[in] Here is the next sequence: EQKKFYNAMKN [SCN5A_Y1495_K1500N_YF]
[out] 0.527

[in] # repeat for IRGNMYFENSF [EGFR_Y112_YF]
[out] 1.05

[in] # iterate: QRASDYYSQQM [GBP6_Y333_A331S]
[out] 0.403

[in] What do you have for PQDVTYARLHS [LILRB4_Y412_Q414R] ?
[out] 5.59

[in] Another sequence to check: KGLKVYVNGTL [ADGRD1_Y183_E178K]
[out] 0.703

[in] Now give it for QRRNVYFFSFL [PTEN_Y176_Y174N_YF] too.
[out] 1.8

[in] Check SSDPDYRAAVD [GLB1_Y154_L155R] too.
[out] 0.668

[in] Also HDHFGYRQSVT [CD55_Y245_R240H_YF] ?
[out] 0.871

[in] Request: HKGASYAFRLS [PTPRD_Y891_V892A]
[out] 0.696

[in] Would you mind doing SWKRRYFLLWA [APBB1IP_Y331_R335W] as well?
[out] 0.646

[in] Entry to check: PPAPRYHDSAV [LZTR1_Y119_H121D]
[out] 0.508

[in] Next entry: VDLIVYLRTNP [TK2_Y181]
[out] 0.623

[in] Proceed to ATDLAYFLVRK [ASL_Y375_YF]
[out] 1.84

[in] Same for MPIPMYDASQA [CARMIL1_Y637]
[out] 0.75

[in] What do you have for SHLSSYTTHPQ [NIPBL_Y195_P192L] ?
[out] 0.575

[in] Next up: SENPKYPEVGD [TMEM43_Y233]
[out] 0.594
